Protocol details: Inhibition of Plasmodium falciparum recombinant falcipain-2 using Cbz-Phe-Arg-AMC as substrate by standard fluorescence assay
Test readout: Ki (µM)
Just the number in µM, nothing appended.

Value lookup for Ki; key = CCOC(=O)/C=C/CN[C@@H](CCC(N)=O)C(=O)N[C@H](C(=O)N[C@H](C(=O)N[C@@H](C)C(=O)OCc1ccccc1)C(C)C)C1CCCCC1
5.4

====

# selectivity ratio annotations
Protocol details: Selectivity index, ratio of IC50 for mouse J774.1 cells to IC50 for Trypanosoma brucei brucei
Assay type: toxicity
Experimental conditions: J774.1 cells versus Trypanosoma brucei brucei, read-out: Ratio IC50
The answer should be a number; do not append a unit.

Reference set (3 entries):
Structure as smiles	selectivity ratio
C[C@H](NC(=O)[C@H](Cc1ccccc1)NC(=O)/C=C\C(=O)N[C@@H](Cc1ccccc1)C(=O)OCc1ccccc1)C(=O)O	10
CCOC(=O)/C=C/C(=O)N[C@@H](Cc1ccccc1)C(=O)OCc1ccccc1	10
CCOC(=O)/C=C/[C@@H](CCC(=O)NC(c1ccccc1)(c1ccccc1)c1ccccc1)NC(=O)[C@@H](NC(=O)OC(C)(C)C)c1ccccc1	17

// next entry
Value lookup for selectivity ratio; key = O=C(/C=C\C(=O)N[C@@H](Cc1ccccc1)C(=O)OCc1ccccc1)N[C@@H](Cc1ccccc1)C(=O)O
10
